Could you please report measured pIC50 for the items listed next?
- system tested: UniProt P17752
- Sequence (P17752 whole entry): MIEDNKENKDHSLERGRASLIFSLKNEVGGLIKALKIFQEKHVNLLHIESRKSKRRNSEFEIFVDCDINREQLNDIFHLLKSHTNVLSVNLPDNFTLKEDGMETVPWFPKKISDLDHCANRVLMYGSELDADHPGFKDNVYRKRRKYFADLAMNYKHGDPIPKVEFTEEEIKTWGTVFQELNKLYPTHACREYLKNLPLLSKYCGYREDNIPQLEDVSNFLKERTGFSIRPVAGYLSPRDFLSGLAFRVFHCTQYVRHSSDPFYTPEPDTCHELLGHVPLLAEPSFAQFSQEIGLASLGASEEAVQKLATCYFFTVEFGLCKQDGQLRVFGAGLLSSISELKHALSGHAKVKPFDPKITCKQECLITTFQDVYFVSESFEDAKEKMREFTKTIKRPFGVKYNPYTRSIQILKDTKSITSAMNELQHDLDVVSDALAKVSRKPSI
- assay procedure: Biochemical in vitro assay using fluorescence readout (TPH1 inhibition)
- condition: human TPH1, fluorescence readout
Numbers only, as −log10 of the molar value.

COc1ccc(C2c3c(nc4sccn34)CCN2C(=O)COc2ccc(CN3CCOCC3)cc2Cl)cc1OC (stereo not shown)	8.30
CS(=O)(=O)Nc1ccc(OCC(=O)N2CCc3nc4sc(C(F)F)nn4c3C2c2ccc(Cl)cc2F)c(Cl)n1 (stereo not shown)	7.72
COC(=O)c1ccc(C2c3c(nc4sc(C)nn34)CCN2C(=O)COc2ccc(NS(C)(=O)=O)nc2Cl)c(F)c1 (stereo not shown)	7.77

Determine its reported pIC50: CCc1nc(NS(C)(=O)=O)ccc1OCC(=O)N1CCc2nc3sc(C)nn3c2C1c1ccc(C)c(F)c1F (stereo not shown)
8.05
